Hey, just so you know, these numbers are from the supplement of paper PMC10627819.

system: S. aureus DSM 20231; assay: Bliss interaction score (quartile over a dose matrix) (fitness difference); higher = more antagonism (negative = synergy); conditions: main component drawn;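 also: first quartile when negative (synergy) and third quartile when positive (antagonism)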
Form field: Bliss interaction score (one value per entry).
PROPERTY NAME: Bliss interaction score

{"COMPOUND": "CO/N=C(\\C(=O)N[C@@H]1C(=O)N2C(C(=O)O)=C(COC(N)=O)CS[C@H]12)c1ccco1 [Cefuroxime] + CC(C1CCC(C(O1)OC2C(CC(C(C2O)OC3C(C(C(CO3)(C)O)NC)O)N)N)N)NC", "PROPERTY NAME": "Bliss interaction score", "EXPERIMENTAL VALUE": -0.313}
{"COMPOUND": "C[C@@H]1O[C@@H]1P(=O)(O)O [Fosfomycin] + CC(C1CCC(C(O1)OC2C(CC(C(C2O)OC3C(C(C(CO3)(C)O)NC)O)N)N)N)NC", "PROPERTY NAME": "Bliss interaction score", "EXPERIMENTAL VALUE": -0.0757}
{"COMPOUND": "CC(=O)Oc1ccccc1C(=O)O [Acetylsalicylicacid] + CC(C1CCC(C(O1)OC2C(CC(C(C2O)OC3C(C(C(CO3)(C)O)NC)O)N)N)N)NC", "PROPERTY NAME": "Bliss interaction score", "EXPERIMENTAL VALUE": 0.165}
{"COMPOUND": "COc1cccc2c1C(=O)c1c(O)c3c(c(O)c1C2=O)C[C@@](O)(C(=O)CO)C[C@@H]3O[C@H]1C[C@H](N)[C@H](O)[C@H](C)O1 [Doxorubicin] + CC(C1CCC(C(O1)OC2C(CC(C(C2O)OC3C(C(C(CO3)(C)O)NC)O)N)N)N)NC", "PROPERTY NAME": "Bliss interaction score", "EXPERIMENTAL VALUE": 0.037}

* * *

Listed here: items and their measured Bliss interaction score.
tested on: S. aureus Newman; experiment: Bliss interaction score (quartile over a dose matrix) (fitness difference); higher = more antagonism (negative = synergy)

{"COMPOUND": "CN(C)[C@@H]1C(O)=C(C(N)=O)C(=O)[C@@]2(O)C(O)=C3C(=O)c4c(O)ccc(Cl)c4[C@@](C)(O)[C@H]3C[C@@H]12 [Clortetracycline] + CC[C@H]1OC(=O)[C@H](C)[C@@H](O[C@H]2C[C@@](C)(OC)[C@@H](O)[C@H](C)O2)[C@H](C)[C@@H](O[C@@H]2O[C@H](C)C[C@H](N(C)C)[C@H]2O)[C@](C)(O)C[C@@H](C)C(=O)[C@H](C)[C@@H](O)[C@]1(C)O [Erythromycin]", "Bliss interaction score": -0.0583}
{"COMPOUND": "CC(=O)Oc1ccccc1C(=O)O [Acetylsalicylicacid] + CO[C@H]1/C=C/O[C@@]2(C)Oc3c(C)c(O)c4c(O)c(c(/C=N/N5CCN(C)CC5)c(O)c4c3C2=O)NC(=O)/C(C)=C\\C=C\\[C@H](C)[C@H](O)[C@@H](C)[C@@H](O)[C@@H](C)[C@H](OC(C)=O)[C@@H]1C [Rifampicin]", "Bliss interaction score": 0.036}
{"COMPOUND": "CC(=O)Oc1ccccc1C(=O)O [Acetylsalicylicacid] + CN[C@H](CC(C)C)C(=O)N[C@H]1C(=O)N[C@@H](CC(N)=O)C(=O)N[C@H]2C(=O)N[C@H]3C(=O)N[C@H](C(=O)N[C@H](C(=O)O)c4cc(O)cc(O)c4-c4cc3ccc4O)[C@H](O)c3ccc(c(Cl)c3)Oc3cc2cc(c3O[C@@H]2O[C@H](CO)[C@@H](O)[C@H](O)[C@H]2O[C@H]2C[C@](C)(N)[C@H](O)[C@H](C)O2)Oc2ccc(cc2Cl)[C@H]1O [Vancomycin]", "Bliss interaction score": 0.0599}
